Hey, just so you know, these numbers are from the RNAGym collection of RNA variant scans (doi:10.7554/elife.80360).

self-cleavage values by entry
B1: CPEB3 Ribozyme (parent)
chain: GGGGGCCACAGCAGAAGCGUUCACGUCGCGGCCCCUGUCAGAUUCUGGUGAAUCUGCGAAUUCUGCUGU

variants of: B1; assay: self-cleavage, relative activity (ratio to wild type); higher = more cleavage; co-transcriptional
REPORTED_METRIC: self-cleavage

>>> number("GGGGGCCACAGCAGAAGCGUUCACGUCGCGGCCCCUGCCAGAUUCUGGUGAAUCUGCGAAUGCUGCUGU [U38C U62G]")
0.717
>>> number("GGGGGCCACAGCAGAAACGUUCACGUCGCGGCCCCUGUCAGAUUCUGGUGAAUCUGCGGAUUCUGCUGU [G17A A59G]")
0.691
>>> number("GGGGGCCACAGCAGAAGCGAUCACGUCGCGGCCGCUGUCAGAUUCUGGUGAAUCUGCGAAUUCUGCUGU [U20A C34G]")
0.196
>>> number("GGGGCCCACAGCAGAAGCGUUCACGUCGCGGCCCCUGUCAGAUUCUGGUAAAUCUGCGAAUUCUGCUGU [G5C G50A]")
0.202
>>> number("GGGGGCCACAGCAGAAGAGUUCACGUCGCGGCCCCUGUCAGAUUCUGGUGAAUCUGCGAAUUCUGCUGU [C18A]")
0.2
>>> number("GGGGGCCACAGCAGAAGCGUUCACGUCGCGGCCCCAGUCAGAUUCUGGUGAAUCUGCGAAUUCGGCUGU [U36A U64G]")
0.202
>>> number("GGGGGCCACAGCAGAAGCGUUCACGUCGCGGGCCCUGUCAGAUUCUGGUGAAUCUGCGUAUUCUGCUGU [C32G A59U]")
0.206
>>> number("GGGGGCCACAGCAGAUGCGUUCACGUCGCGGCCCCUGUGAGAUUCUGGUGAAUCUGCGAAUUCUGCUGU [A16U C39G]")
0.693
